HIV-1 IN (Human immunodeficiency virus type 1 group M subtype B): reported IC50 for various compounds.
Experimental readout: IC50

compound=CC(=O)c1ccc2c(c1)c(=O)c(C(=O)O)cn2Cc1ccc(F)cc1 tested_system="HIV-1 IN (Human immunodeficiency virus type 1 group M subtype B)" readout_value="> 100 µM"
compound=O=C(/C=C/c1ccc2c(c1)c(=O)c(C(=O)O)cn2Cc1ccc(F)cc1)c1ccccc1 tested_system="HIV-1 IN (Human immunodeficiency virus type 1 group M subtype B)" readout_value="3.38 µM"
compound=CCOC(=O)c1cn(Cc2ccc(F)cc2)c2ccc(OCc3cccc(Cl)c3Cl)cc2c1=O tested_system="HIV-1 IN (Human immunodeficiency virus type 1 group M subtype B)" readout_value="0.05 µM"
compound="CCOC(=O)/C=C/C(=O)/C=C/c1cccn1Cc1ccccc1Cl [compound 11, reference compound]" tested_system="HIV-1 IN (Human immunodeficiency virus type 1 group M subtype B)" readout_value="> 100 µM"
compound=O=C(O)c1cn(Cc2ccc(F)cc2)c2ccc(OCc3ccc4c(c3)OCO4)cc2c1=O tested_system="HIV-1 IN (Human immunodeficiency virus type 1 group M subtype B)" readout_value="> 100 µM"
compound=O=C(O)c1cn(Cc2ccc(F)cc2)c2ccc(OCc3cccc4ccccc34)cc2c1=O tested_system="HIV-1 IN (Human immunodeficiency virus type 1 group M subtype B)" readout_value="> 100 µM"
compound=O=C(O)c1cn(Cc2ccc(F)cc2)c2ccc(OCc3ccc(OCc4ccccc4)cc3)cc2c1=O tested_system="HIV-1 IN (Human immunodeficiency virus type 1 group M subtype B)" readout_value="> 100 µM"
compound=O=C(O)c1cn(Cc2ccc(F)cc2)c2ccc(OCc3cccc(Cl)c3Cl)cc2c1=O tested_system="HIV-1 IN (Human immunodeficiency virus type 1 group M subtype B)" readout_value="> 100 µM"
compound=O=C(O)c1cn(Cc2ccc(F)cc2)c2ccc(OCc3ccccc3)cc2c1=O tested_system="HIV-1 IN (Human immunodeficiency virus type 1 group M subtype B)" readout_value="0.41 µM"
compound=O=C(O)c1cn(Cc2ccc(F)cc2)c2ccc(OCc3ccc(-c4ccccc4)cc3)cc2c1=O tested_system="HIV-1 IN (Human immunodeficiency virus type 1 group M subtype B)" readout_value="> 250 µM"
compound=CCOC(=O)c1cn(Cc2ccc(F)cc2)c2ccc(C(C)=O)cc2c1=O tested_system="HIV-1 IN (Human immunodeficiency virus type 1 group M subtype B)" readout_value="> 100 µM"
compound=CCOC(=O)c1cn(Cc2ccc(F)cc2)c2ccc(OCc3ccc(Cl)c(Cl)c3)cc2c1=O tested_system="HIV-1 IN (Human immunodeficiency virus type 1 group M subtype B)" readout_value="9.45 µM"
compound=O=C(O)c1cn(Cc2ccc(F)cc2)c2ccc(OCc3ccc(Cl)c(Cl)c3)cc2c1=O tested_system="HIV-1 IN (Human immunodeficiency virus type 1 group M subtype B)" readout_value="3.25 µM"
